# assayed-system: various mutants of kinase EGFR (BaF3 cell lines stably transfected with kinase) (Homo sapiens, UniProt P00533, T790M, form not given)
# Construct: other: BaF3 cells stably transfected with EGFR Δ19Del/T790M; MTS, 48 h; other: BaF3 cell line stably transfected with EGFR Δ19Del/T790M; MTS, 48
# Sequence (P00533 with tags, fused parts or gaps DEL746-750/T790M, form open): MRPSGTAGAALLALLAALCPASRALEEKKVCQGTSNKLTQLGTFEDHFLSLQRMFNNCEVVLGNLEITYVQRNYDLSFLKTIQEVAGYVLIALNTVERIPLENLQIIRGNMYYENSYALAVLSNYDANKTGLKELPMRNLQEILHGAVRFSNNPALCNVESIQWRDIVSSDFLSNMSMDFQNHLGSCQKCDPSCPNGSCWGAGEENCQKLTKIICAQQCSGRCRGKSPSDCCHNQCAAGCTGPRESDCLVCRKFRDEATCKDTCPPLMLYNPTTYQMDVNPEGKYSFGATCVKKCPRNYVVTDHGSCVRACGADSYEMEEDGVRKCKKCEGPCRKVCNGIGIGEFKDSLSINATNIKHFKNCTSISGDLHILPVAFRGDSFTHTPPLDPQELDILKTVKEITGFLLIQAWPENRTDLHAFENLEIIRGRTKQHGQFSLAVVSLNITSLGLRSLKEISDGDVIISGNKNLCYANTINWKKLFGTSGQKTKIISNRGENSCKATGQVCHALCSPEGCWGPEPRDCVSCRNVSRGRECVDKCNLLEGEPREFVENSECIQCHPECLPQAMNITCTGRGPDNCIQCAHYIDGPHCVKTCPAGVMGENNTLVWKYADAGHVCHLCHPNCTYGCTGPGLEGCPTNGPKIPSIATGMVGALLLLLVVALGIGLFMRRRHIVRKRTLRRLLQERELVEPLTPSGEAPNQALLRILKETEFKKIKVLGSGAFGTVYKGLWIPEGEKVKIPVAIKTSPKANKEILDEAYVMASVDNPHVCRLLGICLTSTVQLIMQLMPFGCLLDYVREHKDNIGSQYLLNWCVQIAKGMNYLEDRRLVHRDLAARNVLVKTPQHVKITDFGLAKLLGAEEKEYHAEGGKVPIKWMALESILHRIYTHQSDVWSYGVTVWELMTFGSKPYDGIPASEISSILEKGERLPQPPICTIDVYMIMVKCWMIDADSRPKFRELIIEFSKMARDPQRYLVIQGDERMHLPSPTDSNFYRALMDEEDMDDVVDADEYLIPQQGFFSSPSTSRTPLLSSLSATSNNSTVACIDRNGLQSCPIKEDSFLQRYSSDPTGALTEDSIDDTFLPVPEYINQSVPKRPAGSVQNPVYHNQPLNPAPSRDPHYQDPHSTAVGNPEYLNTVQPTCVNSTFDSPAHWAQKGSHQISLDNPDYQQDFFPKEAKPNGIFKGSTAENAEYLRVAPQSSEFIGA
# assay-remarks: Growth inhibitory activity of compounds on BaF3 cell lines stably transfected with kinase (MTS, 48 h)
# Type: cell-based
# conditions-used: BaF3 cells stably transfected with EGFR Δ19Del/T790M, read-out: IC50, growth inhibition, Δ19Del/T790M
pIC50: −log10 of the molar value.
observable: pIC50

compound: COc1cc(N2CCC(N3CCN(C)CC3)CC2)ccc1Nc1ncc(Cl)c(Nc2ccc3nccnc3c2N(C)S(C)(=O)=O)n1 [Compound I-18]
pIC50: 6.30 to 7.30
//
compound: COc1cc(N2CCC(N3CCN(C)CC3)CC2)c(C(C)C)cc1Nc1ncc(Br)c(Nc2ccc3nccnc3c2N(C)S(C)(=O)=O)n1 [Compound I-284]
pIC50: 6.30 to 7.30

[in] Tell me the measured pIC50 of COc1cc(N2CCC(N3CCN(C)CC3)CC2)c(Cc2ccccc2)cc1Nc1ncc(F)c(Nc2ccc3nccnc3c2N(C)S(C)(=O)=O)n1 [Compound I-182] , please.
[out] 5.60 to 6.30

[in] Which measured pIC50 value corresponds to CCc1cc(Nc2ncc(Cl)c(Nc3ccc4nccnc4c3N(CC)S(C)(=O)=O)n2)c(OC)cc1N1CCC(N2CCN(C)CC2)CC1 [Compound I-110] ?
[out] ≥ 7.30

[in] Which pIC50 value belongs to CCc1cc(Nc2ncc(Br)c(Nc3ccc4nccnc4c3N(C)S(=O)(=O)C(F)(F)F)n2)c(OC)cc1N1CCC(N2CCN(C)CC2)CC1 [Compound I-125] ?
[out] 6.30 to 7.30

[in] I am curious: what pIC50 value has been reported for COc1cc(N2CCC(N(C)C)CC2)c(C)cc1Nc1ncc([N+](=O)[O-])c(Nc2ccc3nccnc3c2N(C)S(C)(=O)=O)n1 [Compound I-192] ?
[out] ≥ 7.30

----------
# assayed-system: various mutants of kinase EGFR (BaF3 cell lines stably transfected with kinase) (Homo sapiens, UniProt P00533, T790M, form not given)
# Construct: other: BaF3 cells stably transfected with EGFR Δ19Del/T790M; MTS, 48 h; other: BaF3 cell line stably transfected with EGFR Δ19Del/T790M; MTS, 48
# assay-remarks: Growth inhibitory activity of compounds on BaF3 cell lines stably transfected with kinase (MTS, 48 h)
# Type: cell-based
# conditions-used: BaF3 cell line stably transfected with EGFR Δ19Del/T790M, read-out: Δ19Del/ T790M growth inhibitory activity IC50
observable: IC50

molecule: CCc1cc(Nc2ncc(C)c(Nc3ccc4nccnc4c3N(C)S(C)(=O)=O)n2)c(OC(F)(F)F)cc1N1CCC(N2CCN(C)CC2)CC1 [Compound I-314]
IC50: ≤ 50 nM

[in] Can you look up the measured IC50 of CCc1cc(Nc2ncc(Br)c(Nc3ccc4nccnc4c3NS(=O)(=O)C(C)C)n2)c(OC)cc1N1CCC(N2CCN(C)CC2)CC1 [Compound I-415] for me?
[out] ≤ 50 nM

[in] IC50 lookup needed for COc1cc(N2CCC(N3CCN(C)CC3)CC2)c(C)cc1Nc1nc(Nc2ccc3nccnc3c2N(C)S(C)(=O)=O)c2sccc2n1 [II-1-2] , thanks.
[out] 50 to 500 nM

[in] Please give the measured IC50 for this molecule: COc1ccc(N2CCC(O)CC2)cc1Nc1ncc(Br)c(Nc2ccc3nccnc3c2N(C)S(=O)(=O)C(C)C)n1 [Compound I-376]
[out] 50 to 500 nM

[in] Give the measured IC50 of CCc1cnc(Nc2ccc(N3CCC(N4CCN(C)CC4)CC3)cc2OC)nc1Nc1ccc2nccnc2c1N(C)S(C)(=O)=O [Compound I-316] .
[out] 50 to 500 nM

[in] Any idea what IC50 was measured for CCc1cc(Nc2nc(Nc3ccc4nccnc4c3N(C)S(C)(=O)=O)c3sccc3n2)c(OC)cc1N1CCN(C)CC1 [II-1-15] ?
[out] 500 to 2500 nM

Cited source: patent US20230310428A1
